assay: quenching of fluorescent RNA aptamer on beads, dose response, artefact control for GRK2 RNA aptamer inhibitor project, biochemical, cherry pick 1, bead-based flow cytometry (AID 504521); conditions: active compounds read high
The list shows a part of the results. The source made the active and inactive calls.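 The calls were made as follows: active = compounds whose bead fluorescence drops by more than 37 kMESF across the dose range, marking them as dye quenchers; inactive = the rest.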
Listed below: fluorescence change (kMESF span) values for each entry.
measure: fluorescence change (kMESF span)

- molecule: "CCN1/C(=C/c2ccc3ccc(C)cc3[n+]2CC)Sc2ccccc21"
  measure: "fluorescence change (kMESF span)"
  result: "-1.6 kMESF (inactive)"
- molecule: "C=C(C)C(=O)Nc1cccc(C2=NOC3(C2)C[C@H](C(N)=O)N(C(=O)C(c2ccccc2)c2ccccc2)C3)c1 (some centres undefined)"
  measure: "fluorescence change (kMESF span)"
  result: "-3.5 kMESF (inactive)"
- molecule: "CCN1/C(=C\\c2ccc3ccccc3[n+]2CC)Sc2cc(C)ccc21"
  measure: "fluorescence change (kMESF span)"
  result: "8.1 kMESF (inactive)"
- molecule: "COc1ccc(N2CCN(C(CNS(=O)(=O)c3ccc(C)cc3)c3ccccc3)CC2)cc1 (centres undefined)"
  measure: "fluorescence change (kMESF span)"
  result: "7.4 kMESF (inactive)"
